Tested on: Swiss mice, Sarcoma 180 sc, mean tumor weight T/C
protocol description: NCI In Vivo Anticancer Drug Screen. Data for tumor model Sarcoma 180 (subcutaneous) in Swiss mice
conditions: endpoint: mean tumor weight; dose: 250.0 mg/kg/injection; schedule: Q01DX007 (ip); vehicle: carboxymethylcellulose (CMC); higher = larger tumour
In this section, each of the compounds is paired with its reported T/C.

Below: 5 compounds and their reported T/C.
>>> df
                                   compound  observation_type            result
0                    COc1cccc2c1-c1ccccc1C2               T/C  114 % of control
1  CC1C/C=C2\CSC(NC(=O)/C3=C\N(C/C=C/C=C/C(O)CC(O)CC(=O)N3)C2=O)C(=O)O1 (stereo not given)               T/C  119 % of control
2       CC(=O)Nc1ccc2c(c1)Cc1cc(NC=O)ccc1-2               T/C   46 % of control
3               O=C1Nc2ccccc2/C1=C/c1cccnc1               T/C   43 % of control
4               CCCCN(CCCC)C(=O)c1[nH]cnc1N               T/C   87 % of control

T/C reported for this compound CCOC(=O)c1ccc(N=NN(C)C)cc1 : 12 % of control

Data point: CS(=O)(=O)OCC(O)C(O)COS(C)(=O)=O (stereo not given) ; T/C = 65 % of control

The reported T/C of the compound NC(Cc1cccs1)C(=O)O (stereo not given) was 81 % of control

The compound listed as O=S(c1ccc(Cl)cc1)c1ccc(Cl)cc1 shows T/C equal to 105 % of control

Record CNNCc1ccc(C(=O)NC(C)C)cc1 , field T/C: 15 % of control

----------
This listing pairs compounds with measured T/C.
System: Swiss mice, Sarcoma 180 sc, mean tumor weight T/C
protocol description: NCI In Vivo Anticancer Drug Screen. Data for tumor model Sarcoma 180 (subcutaneous) in Swiss mice
conditions: endpoint: mean tumor weight; dose: 125.0 mg/kg/injection; schedule: Q01DX007 (ip); vehicle: carboxymethylcellulose (CMC); higher = larger tumour

Known results for compounds:
>>> print(df.to_string())
                                   compound  observation_type            result
0  CN(C)C1C(=O)C(C(N)=O)=C(O)C2(O)C(=O)C3=C(O)c4c(O)cccc4C(C)(O)C3C(O)C12 (stereo not drawn)               T/C   50 % of control
1  CC1NC(=O)NC1CCCCCC(=O)O (stereo not drawn)               T/C  103 % of control
2  O=C(O)c1c(-c2ccccc2)[nH]c2cc(Cl)ccc2c1=O               T/C   25 % of control
3              CN(CCO)/N=N/c1nc[nH]c1C(N)=O               T/C   73 % of control

Turning to the following compound.
// T/C lookup, compound = Cc1cc2nc3c(=O)[nH]c(=O)nc-3n(CC(O)C(O)C(O)C(O)CO)c2cc1C (stereo not drawn) , result: 83 % of control

----------
Test system: Swiss mice, Sarcoma 180 sc, mean tumor weight T/C
protocol description: NCI In Vivo Anticancer Drug Screen. Data for tumor model Sarcoma 180 (subcutaneous) in Swiss mice
conditions: endpoint: mean tumor weight; dose: 125.0 mg/kg/injection; schedule: Q01DX007 (ip); vehicle: carboxymethylcellulose (CMC); higher = larger tumour
observation type: T/C

                        compound           result
0  Nc1ccc2c(c1)Cc1cc(NC=O)ccc1-2  72 % of control

Documented T/C of O=C(Nc1ccc(Sc2ccc(N=Nc3c(O)c(S(=O)(=O)O)cc4cc(S(=O)(=O)O)ccc34)cc2)cc1)c1ccc(N=Nc2ccc3c(S(=O)(=O)O)cccc3c2O)cc1 : 28 % of control

Briefly, T/C measured for O=C1Nc2ccccc2/C1=C/c1cccnc1 : 79 % of control

The measured T/C associated with CNC(C)=O reads 84 % of control

Per the record, CCCCN(C)/N=N/c1nc[nH]c1C(N)=O has T/C of 14 % of control

Record c1ccc2nc3c(nc2c1)[nH]c1ccccc13 . Reported T/C: 67 % of control

----------
Quick reference: T/C of the listed items.
System: Swiss mice, Sarcoma 180 sc, mean tumor weight T/C
protocol description: NCI In Vivo Anticancer Drug Screen. Data for tumor model Sarcoma 180 (subcutaneous) in Swiss mice
conditions: endpoint: mean tumor weight; dose: 125.0 mg/kg/injection; schedule: Q01DX007 (ip); vehicle: carboxymethylcellulose (CMC); higher = larger tumour

As a guide, the following entries are already answered.
>>> print(df.to_string())
                                   molecule           result
0           CN(N=Nc1n[nH]nc1C(N)=O)c1ccccc1  70 % of control
1  CC1(C)OCC(C(OC(=O)c2ccccc2)C(OC2CCCCO2)C2COC(C)(C)O2)O1 (configuration not stated)  86 % of control
2                 CNNCc1ccc(C(=O)NC(C)C)cc1  36 % of control
3  OCC1OC(n2cnc3c(=S)nc[nH]c32)C(O)C1O (configuration not stated)  59 % of control

# T/C of CCCCCCCCCCCCOP(N)(=O)OCCCCCCCCCCCC = 42 % of control

What the record says about CC(=O)Nc1cc2c(cc1Cl)C(=O)c1cc(Cl)ccc1-2 : T/C is 39 % of control

T/C recorded for this molecule, CN(/N=N/N(C)c1ccccc1)c1ccccc1 , is 37 % of control
